List of pKd values.
tested.target: T1, recombinant biotinylated human PAR2 extracellular domain (residues 1-75), N-terminal AviTag, C-terminal Flag … (human, UniProt P55085 26-75, biotin on the AviTag (enzymatic biotinylation))
T1 construct: also called Bio-human-PAR2 ECD; human PAR2 ECD; not shown: N-terminal AviTag (Avidity LLC); C-terminal Flag and poly Histidine tags
T1 sequence (P55085 26-75): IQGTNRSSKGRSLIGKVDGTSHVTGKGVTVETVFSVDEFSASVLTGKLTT
experiment: Biacore SPR 25 C, pH 6.0
Note on pKd: it is the negative log10 of concentration, concentration in mol/L.

// below: answered binders
PaB670103 Fab (Fab, V domains shown, Fab; also called ZZ1RCX-C09) VH: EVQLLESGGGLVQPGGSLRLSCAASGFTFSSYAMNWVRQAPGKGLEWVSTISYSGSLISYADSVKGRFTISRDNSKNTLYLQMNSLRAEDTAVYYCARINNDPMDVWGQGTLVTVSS VL: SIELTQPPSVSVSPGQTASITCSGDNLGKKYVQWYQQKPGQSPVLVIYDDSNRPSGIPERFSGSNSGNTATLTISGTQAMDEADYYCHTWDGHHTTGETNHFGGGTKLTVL ... 8.74
PaB670136 Fab (Fab, V domains shown, Fab; also called ZZ1RUF-A01) VH: EVQLLESGGGLVQPGGSLRLSCAASGFTFSSYAMNWVRQAPGKGLEWVSTISYHGHHISYADSHHHRFTISRDNSKNTLYLQMNSLRAEDTAVYYCARIHHDPMDHWGQGTLVTVSS VL: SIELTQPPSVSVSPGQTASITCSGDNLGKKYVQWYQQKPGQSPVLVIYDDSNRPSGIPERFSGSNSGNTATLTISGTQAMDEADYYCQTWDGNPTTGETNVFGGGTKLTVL ... 7.72
PaB670128 Fab (Fab, V domains shown, Fab; also called ZZ1RUE-A01) VH: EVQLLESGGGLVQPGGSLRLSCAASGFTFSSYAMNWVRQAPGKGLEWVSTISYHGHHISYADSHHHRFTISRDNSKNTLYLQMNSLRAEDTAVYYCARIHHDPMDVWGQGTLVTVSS VL: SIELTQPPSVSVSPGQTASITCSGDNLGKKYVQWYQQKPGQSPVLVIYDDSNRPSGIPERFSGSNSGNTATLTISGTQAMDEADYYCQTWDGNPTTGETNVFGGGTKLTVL ... 7.70
PaB670129 Fab (Fab, V domains shown, Fab; also called ZZ1RUE-F02) VH: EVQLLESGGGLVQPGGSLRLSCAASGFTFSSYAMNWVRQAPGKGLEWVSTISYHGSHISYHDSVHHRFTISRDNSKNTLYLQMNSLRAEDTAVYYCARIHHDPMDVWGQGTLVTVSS VL: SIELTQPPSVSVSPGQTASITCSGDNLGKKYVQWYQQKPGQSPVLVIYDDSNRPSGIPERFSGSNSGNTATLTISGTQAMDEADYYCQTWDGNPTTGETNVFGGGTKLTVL ... 7.46
PaB670120 Fab (Fab, V domains shown, Fab; also called ZZ1RUC-C11) VH: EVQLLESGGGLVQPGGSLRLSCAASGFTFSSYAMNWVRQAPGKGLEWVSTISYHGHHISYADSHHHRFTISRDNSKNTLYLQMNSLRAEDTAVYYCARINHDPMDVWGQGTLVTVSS VL: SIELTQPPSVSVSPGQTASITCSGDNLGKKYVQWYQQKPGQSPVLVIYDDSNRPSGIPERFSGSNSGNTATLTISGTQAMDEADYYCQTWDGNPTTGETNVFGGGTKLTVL ... 8.22
PaB670084 Fab (Fab, V domains shown, Fab; also called ZZ1PXA-A05) VH: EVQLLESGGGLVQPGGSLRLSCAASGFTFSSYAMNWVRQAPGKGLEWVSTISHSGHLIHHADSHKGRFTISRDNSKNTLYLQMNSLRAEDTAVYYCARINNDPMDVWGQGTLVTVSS VL: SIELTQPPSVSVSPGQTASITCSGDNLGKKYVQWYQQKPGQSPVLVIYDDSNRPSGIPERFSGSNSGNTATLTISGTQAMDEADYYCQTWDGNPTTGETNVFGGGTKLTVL ... 8.36
PaB670076 Fab (Fab, V domains shown, Fab; also called ZZ1NHH-F09) VH: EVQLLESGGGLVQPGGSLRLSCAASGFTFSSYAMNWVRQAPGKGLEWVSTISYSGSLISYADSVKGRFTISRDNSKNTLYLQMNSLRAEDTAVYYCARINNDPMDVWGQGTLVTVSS VL: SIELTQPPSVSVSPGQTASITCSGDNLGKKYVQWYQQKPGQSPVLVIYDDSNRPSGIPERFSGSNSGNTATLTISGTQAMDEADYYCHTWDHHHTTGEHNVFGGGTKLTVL ... 8.34
PaB670048 Fab (Fab, V domains shown, Fab; also called ZZ1KX4-E11) VH: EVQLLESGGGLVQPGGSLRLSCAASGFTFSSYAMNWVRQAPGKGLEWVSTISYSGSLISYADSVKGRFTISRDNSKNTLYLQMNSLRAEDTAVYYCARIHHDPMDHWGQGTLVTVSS VL: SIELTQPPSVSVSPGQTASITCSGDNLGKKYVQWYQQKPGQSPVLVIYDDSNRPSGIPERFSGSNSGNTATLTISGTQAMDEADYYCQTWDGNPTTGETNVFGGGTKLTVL ... 8.59

Now for the binder whose pKd we want.
Reported pKd ( Par0067 Fab (Fab, V domains shown, Fab; also called ZZ15D2-D02) VH: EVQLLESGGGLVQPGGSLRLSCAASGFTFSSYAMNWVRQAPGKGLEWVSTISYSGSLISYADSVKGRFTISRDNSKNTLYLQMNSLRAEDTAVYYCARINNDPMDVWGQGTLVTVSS VL: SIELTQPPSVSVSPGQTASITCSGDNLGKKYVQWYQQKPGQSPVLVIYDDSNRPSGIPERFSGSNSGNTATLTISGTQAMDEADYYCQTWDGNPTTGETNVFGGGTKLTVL ) = 10.51
